These entries and their values trace back to ChEMBL document CHEMBL3396999.

Here's a batch of compounds along with measured IC50 for Collagenase 3 (Homo sapiens, UniProt P45452).
Give just the number in µM; leave the unit off.

{"INPUT_SMILES": "O=C1N/C(=N/c2nsc3ccccc23)S/C1=C\\c1ccccc1", "IC50 / µM": 32}

Kindly note the recorded IC50 for `O=C1N/C(=N/c2nsc3ccccc23)S/C1=C/c1cccc(O)c1` , which is 26.9

Kindly note the recorded IC50 for `O=C1N/C(=N/c2nsc3ccccc23)S/C1=C\c1ccc(Cl)cc1` , which is 25
